Where do the numbers come from? From patent US9492460B2.

// values below are reported pIC50
Biological target: bromodomain BRD4 (44-168), BRD4 (333-460), and BRD4 (1-477 or 44-460) (Homo sapiens)
Construct: BRD4(44-168), BRD4(333-460), BRD4(44-460), BRD4(1-477), O60885-1; fused on or other part: N-terminal BirA biotinylation motif, biotinylated; The TVMV-cleavable His6 tag is removed, except in some BRD4(44-460) runs detected with anti-His terbium cryptate
Test: Time Resolved Fluorescence Resonance Energy Transfer (TR-FRET) binding assay
Settings: one of the FRET assays described
pIC50: −log10 of the molar value.

Worked cases, answers included:
molecule="CCNC(=O)c1cc(-c2c(C)noc2C)cc2c1c1cc(N3CCCOC3=O)ccc1n2C(C)c1ccccc1 (stereo not shown)" system_under_test="bromodomain BRD4 (44-168), BRD4 (333-460), and BRD4 (1-477 or 44-460) (Homo sapiens)" result="> 7.30"
molecule=Cc1noc(C)c1-c1cc(C(N)=O)c2c(c1)[nH]c1ccc(N3CCCOC3=O)cc12 system_under_test="bromodomain BRD4 (44-168), BRD4 (333-460), and BRD4 (1-477 or 44-460) (Homo sapiens)" result="> 6.30"
molecule="COc1cccc(Cn2c3ccc(C(=O)N4CC(C)OC(C)C4)cc3c3ccc(-c4c(C)noc4C)cc32)c1 (stereo not shown)" system_under_test="bromodomain BRD4 (44-168), BRD4 (333-460), and BRD4 (1-477 or 44-460) (Homo sapiens)" result="> 6.30"

Ask: Provide measured pIC50 value, entry: CON(C)C(=O)c1ccc2c3c(C(N)=O)cc(-c4c(C)noc4C)cc3n(Cc3ccccc3)c2c1
Result: > 7.30

====

Target: bromodomain BRD4 (44-168), BRD4 (333-460), and BRD4 (1-477 or 44-460) (Homo sapiens)
Construct: BRD4(44-168), BRD4(333-460), BRD4(44-460), BRD4(1-477), O60885-1; fused on or other part: N-terminal BirA biotinylation motif, biotinylated; The TVMV-cleavable His6 tag is removed, except in some BRD4(44-460) runs detected with anti-His terbium cryptate
Assay: Time Resolved Fluorescence Resonance Energy Transfer (TR-FRET) binding assay
Details: one of the FRET assays described
pIC50: −log10 of the molar value.
property-name: pIC50

Worked cases, answers included:
compound=Cc1noc(C)c1-c1cc(C(=O)NCC(C)C)c2c3cc(C(=O)N4CC(F)C4)ccc3n(Cc3ccc(F)cc3)c2c1 property_name=pIC50 result="> 6.30"
compound=CCNC(=O)c1cc(-c2c(C)noc2C)cc2c1c1cc(N3CCCOC3=O)ccc1n2Cc1ccccc1 property_name=pIC50 result="> 6.30"
compound=Cc1noc(C)c1-c1cc(C(N)=O)c2c3cc(C(=O)N4CC(F)C4)ccc3n(Cc3ccc(Cl)cc3F)c2c1 property_name=pIC50 result="> 7.30"

Ask: Provide measured pIC50 value, entry: Cc1noc(C)c1-c1cc(C(N)=O)c2c3cc(C(=O)N4CC(C)OC(C)C4)ccc3n(Cc3ccccc3C#N)c2c1 (stereo not shown)
Result: > 7.30

====

Biological target: bromodomain BRD4 (44-168), BRD4 (333-460), and BRD4 (1-477 or 44-460) (Homo sapiens)
Construct: BRD4(44-168), BRD4(333-460), BRD4(44-460), BRD4(1-477), O60885-1; fused on or other part: N-terminal BirA biotinylation motif, biotinylated; The TVMV-cleavable His6 tag is removed, except in some BRD4(44-460) runs detected with anti-His terbium cryptate
Assay: Time Resolved Fluorescence Resonance Energy Transfer (TR-FRET) binding assay
Conditions: one of the FRET assays described
pIC50: −log10 of the molar value.
// values below are reported pIC50

Ask: Specify the recorded pIC50 for COC(=O)c1ccc2c3c(C#N)cc(-c4c(C)noc4C)cc3n(Cc3ccccc3)c2c1 [Example 182] , system: bromodomain BRD4 (44-168), BRD4 (333-460), and BRD4 (1-477 or 44-460) (Homo sapiens).
Result: > 5.12

Ask: Specify the recorded pIC50 for CNC(=O)c1cc(-c2c(C)noc2C)cc2c1c1cc(N3CCCOC3=O)ccc1n2Cc1ccc(Cl)cc1 [Example 170] , system: bromodomain BRD4 (44-168), BRD4 (333-460), and BRD4 (1-477 or 44-460) (Homo sapiens).
Result: > 7.30

Ask: Specify the recorded pIC50 for Cc1noc(C)c1-c1cc(C#N)c2c3ccc(C(C)(C)O)cc3n(Cc3ccccc3)c2c1 [Example 184] , system: bromodomain BRD4 (44-168), BRD4 (333-460), and BRD4 (1-477 or 44-460) (Homo sapiens).
Result: > 6.30

Ask: Specify the recorded pIC50 for CCn1c2ccc(C(=O)N3C[C@@H](C)O[C@@H](C)C3)cc2c2ccc(-c3c(C)noc3C)cc21 [Example 2] , system: bromodomain BRD4 (44-168), BRD4 (333-460), and BRD4 (1-477 or 44-460) (Homo sapiens).
Result: > 6.30

Ask: Specify the recorded pIC50 for Cc1noc(C)c1-c1cc(C(N)=O)c2c3cc(C(=O)N4CCO[C@H](C)C4)ccc3n(Cc3ccccc3)c2c1 [Example 62] , system: bromodomain BRD4 (44-168), BRD4 (333-460), and BRD4 (1-477 or 44-460) (Homo sapiens).
Result: > 7.30

====

// values below are reported pIC50
Target: bromodomain BRD4 (44-168), BRD4 (333-460), and BRD4 (1-477 or 44-460) (Homo sapiens)
Construct: BRD4(44-168), BRD4(333-460), BRD4(44-460), BRD4(1-477), O60885-1; fused on or other part: N-terminal BirA biotinylation motif, biotinylated; The TVMV-cleavable His6 tag is removed, except in some BRD4(44-460) runs detected with anti-His terbium cryptate
Experiment: Time Resolved Fluorescence Resonance Energy Transfer (TR-FRET) binding assay
Conditions: one of the FRET assays described
pIC50: −log10 of the molar value.

Worked cases, answers included:
molecule=Cc1oncc1-c1cc(C(N)=O)c2c3cc(C(=O)N4CCOCC4)ccc3n(Cc3ccc(F)cc3)c2c1 property_name=pIC50 result="> 6.30"
molecule=CNC(=O)c1cc(-c2c(C)noc2C)cc2c1c1cc(C(=O)N3CC(F)C3)ccc1n2Cc1ccc(Cl)cc1F property_name=pIC50 result="> 7.30"
molecule=Cc1noc(C)c1-c1cc(C#N)c2c3ccc(C(=O)N4CCOCC4)cc3n(Cc3ccccc3)c2c1 property_name=pIC50 result="> 6.30"
molecule="CNC(=O)c1cc(-c2c(C)noc2C)cc2c1c1cc(N3CCCOC3=O)ccc1n2C(C)c1ccccc1 (stereo not shown)" property_name=pIC50 result="> 5.12"
molecule=Cc1noc(C)c1-c1cc(C(N)=O)c2c3cc(N4CCOC4=O)ccc3n(Cc3ccc(Cl)c(F)c3)c2c1 property_name=pIC50 result="> 6.30"

Ask: Specify the recorded pIC50 for Cc1noc(C)c1-c1cc(C(N)=O)c2c3cc(NC(=O)C4CCCC4)ccc3n(Cc3ccccc3)c2c1 , system: bromodomain BRD4 (44-168), BRD4 (333-460), and BRD4 (1-477 or 44-460) (Homo sapiens).
Result: > 7.30

Ask: Specify the recorded pIC50 for Cc1noc(C)c1-c1cc(C(N)=O)c2c3cc(C(=O)N4CCOC(C)C4)ccc3n(Cc3ccccc3)c2c1 (stereo not shown) , system: bromodomain BRD4 (44-168), BRD4 (333-460), and BRD4 (1-477 or 44-460) (Homo sapiens).
Result: > 7.30

====

Target: bromodomain BRD4 (44-168), BRD4 (333-460), and BRD4 (1-477 or 44-460) (Homo sapiens)
Construct: BRD4(44-168), BRD4(333-460), BRD4(44-460), BRD4(1-477), O60885-1; fused on or other part: N-terminal BirA biotinylation motif, biotinylated; The TVMV-cleavable His6 tag is removed, except in some BRD4(44-460) runs detected with anti-His terbium cryptate
Experiment: Time Resolved Fluorescence Resonance Energy Transfer (TR-FRET) binding assay
Details: one of the FRET assays described
property-name: IC50

Worked cases, answers included:
compound="Cc1noc(C)c1-c1cc(C(N)=O)c2c3ccc(C(C)(C)O)cc3n(C(c3ccc(F)cc3)C3CCOCC3)c2c1 (single isomer, unassigned) [Example 220]" result="< 0.05 µM"
compound="CNC(=O)c1cc(-c2c(C)noc2C)cc2c1c1cc(C(=O)N3CC(F)C3)ccc1n2Cc1ccc(F)cc1 [Example 103]" result="< 0.05 µM"
compound="COC1CN(C(=O)c2ccc3c(c2)c2c(C(N)=O)cc(-c4c(C)noc4C)cc2n3Cc2ccccc2)C1 [Example 52]" result="< 0.05 µM"
compound="Cc1noc(C)c1-c1cc(C(N)=O)c2c3ccc(C(C)(C)O)c(F)c3n(C(c3ccc(F)cc3)C3CCOCC3)c2c1 (single isomer, unassigned) [Example 223]" result="< 0.05 µM"
compound="Cc1noc(C)c1-c1cc(C(N)=O)c2c3cc(O)ccc3n(Cc3ccccc3)c2c1 [Example 178]" result="< 0.05 µM"
compound="Cc1noc(C)c1-c1cc(C(N)=O)c2c3cc(N4CCCCS4(=O)=O)ccc3n(Cc3ccc(F)cc3)c2c1 [Example 175]" result="< 0.05 µM"
compound="Cc1noc(C)c1-c1cc(C#N)c2c3cc(C(=O)N4CC(F)C4)ccc3n(Cc3cccc(F)c3)c2c1 [Example 121]" result="< 0.5 µM"
compound="Cc1noc(C)c1-c1ccc2c3cc(C(=O)N4CC(C)OC(C)C4)ccc3n(Cc3ccc(F)cc3)c2c1 (centres unmarked) [Example 18]" result="< 0.5 µM"
compound="Cc1noc(C)c1-c1cc(C(N)=O)c2c3cc(C(=O)N4CC[C@H](F)C4)ccc3n(Cc3ccccc3)c2c1 [Example 59]" result="< 0.05 µM"
compound="Cc1noc(C)c1-c1cc(C(N)=O)c2c3cc(C(=O)N4CC[C@H](F)C4)ccc3n(Cc3c(F)cccc3F)c2c1 [Example 79]" result="< 0.05 µM"

Ask: Provide measured IC50 value, entry: Cc1noc(C)c1-c1ccc2c3cc(C(=O)N4CC(C)OC(C)C4)ccc3n(Cc3cccc(Cl)c3)c2c1 (centres unmarked) [Example 13]
Result: < 0.5 µM

Ask: Provide measured IC50 value, entry: Cc1nocc1-c1cc(C(N)=O)c2c3cc(C(=O)N4CCOCC4)ccc3n(Cc3ccc(F)cc3)c2c1 [Example 122]
Result: < 0.05 µM

Ask: Provide measured IC50 value, entry: Cc1noc(C)c1-c1cc(C(N)=O)c2c3cc(C(=O)N4CC(C)OC(C)C4)ccc3n(Cc3cc(F)ccc3F)c2c1 (centres unmarked) [Example 42]
Result: < 0.05 µM

Ask: Provide measured IC50 value, entry: Cc1noc(C)c1-c1cc(C(N)=O)c2c3cc(N4CCOC4=O)ccc3n(Cc3ccccc3)c2c1 [Example 161]
Result: < 0.05 µM
